- Assay protocol: Volume of distribution at steady state in Sprague-Dawley rat at 5 mg/kg, iv measured after 0.25 to 24 hrs by LC-MS/MS analysis
- Type: ADME, organism-based
- Condition details: in vivo, time 0.25-24 hrs, read-out: Vdss
Measured metric: Vd (L/kg)
Output spec: scalar in L/kg, unitless text.

COc1ccc2nc(C)c(O[C@@H]3C[C@H]4C(=O)N[C@]5(C(=O)NS(=O)(=O)C6(C)CC6)C[C@H]5/C=C/CCCCC[C@H](NC(=O)OC(C)(C)C)C(=O)N4C3)nc2c1 = 3.5

Could you now look at the following molecule, please?
Query block: Fill blank: measured Vd of the molecule COc1ccc2nc(C)c(O[C@@H]3C[C@H]4C(=O)N[C@]5(C(=O)NS(=O)(=O)C6(C)CC6)C[C@H]5/C=C/CCCCC[C@H](NC(=O)OC5(C(F)(F)F)CCCC5)C(=O)N4C3)nc2c1 is ____.
Result block: 3.9

Reference source: ChEMBL document CHEMBL4828740
